FYI, the data here is from PubChem BioAssay (NCI).

- System: K-562 leukemia
- Test Details: NCI-60 one-dose screen, 48 h (100 = growth as untreated, 0 = no growth, -100 = all killed)
- Condition Info: 10 µM unless noted
This is part of a sample that, as a whole, favours compounds with a hit. Of some 83,000 tested, about 20% had one in any assay.
Consider the following molecules and their measured growth readings.
Note: unit % is implicit; provide only the numeric part.

The cases that follow already have their growth on record.
Molecule | growth / %
COc1ccc(/C(C)=C(/c2ccc(OCCCN(C)C)cc2)c2ccc(OC(=O)c3ccccc3)cc2)cc1 | 38.9
NC1(CO)COC(c2ccccc2)OC1 (stereo not drawn) | 89.5
O=C(/C=C/c1ccccc1)c1ccc(Nc2nc(Nc3ccc(F)cc3)nc(Nc3ccc(Cl)cc3)n2)cc1 | 70.9
Cc1nn(-c2ccccc2)c(N)c1N=C1NC(=O)/C(=C/c2ccc(Br)cc2)S1 | 58.8
COc1cccc(/C=N/NC(=O)c2ccccc2N2CCCC2)c1O | 13.6
COc1ccc(/C=C/C(c2cc(OC)c(OC)c(OC)c2)n2cncn2)cc1 (stereo not drawn) | 17.7
CCCn1nc(C(=O)N(C)Cc2ccccc2)c2c1CCC(N1CCc3ccccc31)C2 (stereo not drawn) | 86.7
C=C1C(=O)O[C@H]2[C@H]1CC/C(COC(=O)/C=C\C(=O)NCc1ccc(Cn3c(=O)sn(CCCCC)c3=O)cc1)=C\CC[C@@]1(C)O[C@@H]21 | 12.6

Record summary for "Cc1ccc(/C=C/C(=O)c2ccc(-n3cc(CN4CCN(c5cc6c(cc5F)c(=O)c(C(=O)O)cn6C5CC5)CC4)nn3)cc2)cc1" : reported growth = 86

Record summary for "O=C(CCCCCNC(=O)c1cc(=O)c(O)co1)Nc1ccccc1" : reported growth = 95.2

Record summary for Nc1nc(N)c2c(n1)NC(c1cccc(Nc3ccnc4cc(C(F)(F)F)ccc34)c1)CC(c1ccccc1)=N2 (stereo not drawn) : reported growth = 13.5

----------
- Tested on: HT29 colon
- Test Details: NCI-60 one-dose screen, 48 h (100 = growth as untreated, 0 = no growth, -100 = all killed)
- Condition Info: 10 µM unless noted
This is part of a sample that, as a whole, favours compounds with a hit. Of some 83,000 tested, about 20% had one in any assay.
Quantity Kind: growth (%)
Note: unit % is implicit; provide only the numeric part.

The cases that follow already have their growth on record.
Compound | Assay Value
N#CSc1c[nH]c2cccc(/C=C/C(=O)/C=C(O)/C=C/c3cccc4[nH]cc(SC#N)c34)c12 | -62.7
O=c1ccc(=O)n(-c2nc(-c3ccc([N+](=O)[O-])cc3)cs2)[nH]1 | 55.6

Record summary for "CN1CCN(C(=O)[C@@]2(C)CC[C@]3(C)CC[C@]4(C)C(=CC[C@@H]5[C@@]6(C)CCC(=O)NC(C)(C)[C@@H]6CC[C@]54C)[C@@H]3C2)CC1" : reported growth = 3.61

Record summary for N=c1c(S(=O)(=O)c2ccccc2)cc2c(=O)n3ccccc3nc2n1CC1CCCO1 (centres undefined) : reported growth = 120

Record summary for N#CC1=C(N)Oc2ccc3ccccc3c2C1c1ccc([N+](=O)[O-])cc1 (centres undefined) : reported growth = 105

Record summary for "O=C(O)c1ccc(-c2ccc(/C=N/Nc3nc(Nc4ccccc4)nc(N4CCCCC4)n3)o2)cc1" : reported growth = 63.4

Record summary for "COc1cc(OC)c(/C=C/C(=O)c2c(O)cc(OC)c(C3CCN(C)CC3)c2OC)c(OC)c1" : reported growth = -73.4

Record summary for "CC(=O)Oc1ccc(OC(C)=O)c2ccccc12" : reported growth = 107

Record summary for "Fc1ccc2[nH]cc(-c3nc(-c4c[nH]c5ccncc45)cs3)c2c1" : reported growth = -62.9
